The threshold is inclusive: glass transition temperature of exactly 90 °C counts as label 1; values below receive label 0.

Please tell me: is the compound *CCCCCCOP(=O)(/N=N/c1ccc(-c2ccc(/N=N/P(=O)(O*)OC)cc2)cc1)OC (repeat unit) at or over 90 °C in terms of glass transition temperature? label 0

What do we get for *C(=O)Nc1ccc(Oc2ccc(NC(=O)c3ccc4c(c3)C(=O)N(c3ccc(S(=O)(=O)c5ccc(N6C(=O)c7ccc(*)cc7C6=O)cc5)cc3)C4=O)cc2)cc1 (repeat unit) ? label 1

And for */C(=C/c1cc(OC)c(/C=C(\c2ccccc2)c2ccc3cc(*)ccc3c2)cc1OC)c1ccccc1 (repeat unit) ? label 1

Param item: *Oc1ccc(/N=C(\c2ccccc2)c2ccc(Oc3ccc(-c4ccc(Oc5ccc(/C(=N/c6ccc(*)cc6)c6ccccc6)cc5)cc4)cc3)cc2)cc1 (repeat unit) label 1

Please give the result for *C(=O)Nc1ccc(S(=O)(=O)c2ccc(N3C(=O)CC(N4C(=O)c5ccc(*)cc5C4=O)C3=O)cc2)cc1 (repeat unit) too. label 1

For *OC(F)(F)COC(=O)c1cc(OCCCCC)cc(C(=O)OCC(*)(F)F)c1 (repeat unit) then? label 0

Same read-out for *c1ccc2c(c1)C(CCCCCC)(CCCCCC)c1cc(-c3cc(CCCCCCCC)c(*)cc3CCCCCCCC)ccc1-2 (repeat unit) ? label 0

What would you report for *c1ccc2c(c1)C(=O)N(c1c(CC)cc(Cc3cc(CC)c(N4C(=O)c5ccc(C(*)(C(F)(F)F)C(F)(F)F)cc5C4=O)c(CC)c3)cc1CC)C2=O (repeat unit) ? label 1

Same question, *CC(*)OC(=O)OCC(F)(F)F (repeat unit) this time label 0

Follow-up entry: *Oc1ccc(C(=O)OCCOC(=O)c2ccc(*)cc2)cc1 (repeat unit) label 0

What do we get for *CC(*)c1cccc(N(c2ccc(C)cc2)c2ccc(C)cc2)c1 (repeat unit) ? label 1

Next: *O[Si](*)(C)CCCCCCCCCCCOc1ccc(-c2ccc(C(=O)Oc3ccc(C(=O)OC(C)C(=O)OC(C)C(=O)OCC(C)CC)cc3)cc2)cc1 (repeat unit) label 0

Try *CC(*)c1ccc(Cl)c([N+](=O)[O-])c1 (repeat unit) next. label 1

---

Result type: glass transition temperature (°C)
Numbers only here, please. The scale is °C.

Could you tell me which glass transition temperature is on file for *C(=O)Nc1cccc(C(=O)c2cccc(NC(=O)c3ccc4c(c3)C(=O)N(c3ccc(-c5sc(-c6ccc(N7C(=O)c8ccc(*)cc8C7=O)cc6)c(-c6ccccc6)c5-c5ccccc5)cc3)C4=O)c2)c1 (repeat unit) ? 308.00

Please give the result for *c1ccc2c(c1)C(=O)N(c1c(C)cc(C3(c4cc(C)c(N5C(=O)c6ccc(C(*)(C(F)(F)F)C(F)(F)F)cc6C5=O)c(C(C)C)c4)c4ccccc4-c4ccccc43)cc1C(C)C)C2=O (repeat unit) too. 335.00

Record: *COc1ccc(C(c2ccc(O*)cc2)(C(F)(F)F)C(F)(F)F)cc1 (repeat unit) 123.00

Next: *CCOCCOc1ccc(/C=C(\C)c2ccc(O*)cc2)cc1 (repeat unit) 39.00

---

Please respond with reported glass transition temperature for every item in the list.
Quick reminder: number only, in °C, skip the unit.

What value of glass transition temperature has been reported for the following molecule? *CCCCCCC(=O)NCc1ccc(CNC(=O)CCCCCCS*)cc1 (repeat unit) 65.00

Do the same for *Oc1ccc(C(CCCC)(CCCC)c2ccc(OC(*)=O)cc2)cc1 (repeat unit) please 113.00

Could you do the same for *CC(O)COc1ccc(C2CCCC(CC)(c3ccc(O*)cc3)C2)cc1 (repeat unit) , please? 140.00

How about *CC(*)(C)c1ccc(C(C)C)cc1 (repeat unit) ? 140.00

Also need *CCCCCOc1ccc(CCc2ccc(O*)cc2C)cc1 (repeat unit) , thanks. 15.40

Repeat with *c1cccc(P(=O)(c2cccc(N3C(=O)c4ccc(Oc5ccc6c(c5)C(=O)N(*)C6=O)cc4C3=O)c2)c2cc(C(F)(F)F)cc(C(F)(F)F)c2)c1 (repeat unit) 228.00

Entry to check: *c1cccc(P(=O)(c2ccc(C(F)(F)F)cc2)c2cccc(N3C(=O)c4ccc(Oc5ccc6c(c5)C(=O)N(*)C6=O)cc4C3=O)c2)c1 (repeat unit) 248.00

Entry to check: *C(=O)c1ccc2c(c1)C(=O)N(c1ccc3c(c1)C(=O)c1cc(N4C(=O)c5ccc(*)cc5C4=O)ccc1-3)C2=O (repeat unit) 331.00
